Experiment: Subunit association by FPLC on Sephacryl S-100HR
Type: physicochemical
Conditions: tetramer 44 to 47 mL, dimer 51 to 54 mL, monomer 63 to 66 mL
Procedure: In order to analyze the subunit association conditions of LATM2, the molecular weight of each LATM2s was measured by FPLC. Sephacryl S-100HR (manufactured by GE Healthcare) was used as a column, a Gel Filtration Calibration Kit LMW (manufactured by GE Healthcare) was used as molecular weight markers, and 50 mM potassium phosphate containing 500 mM NaCl was used as a buffer. The positions of the peaks of eluted tetramer were defined to be 44 to 47 mL after injection of WT-TM2 as a control. […]
Measure: Sephacryl (mL), elution peak position
Reply numerically in mL, unit not repeated.

Previously resolved entries follow.
# Molecule, Scale unit, Observed result
measured = [
    ("TM2P46T-T78A-D116A: TM2 with P46T, T78A and D116A replacements; SEQ ID NO: 18 (protein, Synthetic TM2 P46T-T78A-D116A) MSDVQSSLTGTWYNELNSKMELTANKDGTLTGKYLSKVGDVYVPYTLSGRYNLQPPAGQGVALGWAVSWENSKIHSAATWSGQFFSESSPVILTQWLLSSSTARGDVWESTLVGNASFTKTAPTEQQIAHAQLHCRAPRLK", "mL", 48.24),
    ("TM2 W108K: TM2 in which the 108th tryptophan was replaced with lysine (protein) MSDVQSSLTGTWYNELNSKMELTANKDGTLTGKYLSKVGDVYVPYPLSGRYNLQPPAGQGVALGWAVSWENSKIHSATTWSGQFFSESSPVILTQWLLSSSTARGDVKESTLVGNDSFTKTAPTEQQIAHAQLHCRAPRLK", "mL", 45.14),
]

Sephacryl (mL), elution peak position for TM2 S36A-D116A: TM2 with 36th serine and 116th aspartic acid replaced with alanine; SEQ ID NO: 20 (protein, Synthetic TM2 S36A-D116A) MSDVQSSLTGTWYNELNSKMELTANKDGTLTGKYLAKVGDVYVPYPLSGRYNLQPPAGQGVALGWAVSWENSKIHSATTWSGQFFSESSPVILTQWLLSSSTARGDVWESTLVGNASFTKTAPTEQQIAHAQLHCRAPRLK ? 46.31
